# System Under Test: GATOR2-Sestrin2 interaction (Homo sapiens)
# Construct: To isolate the FLAG-WDR24/endogenous-Sestrin2 complex; endogenous in cells; Sestrin2 and the other GATOR2 subunits are endogenous
# Sequence (P58004 1-480): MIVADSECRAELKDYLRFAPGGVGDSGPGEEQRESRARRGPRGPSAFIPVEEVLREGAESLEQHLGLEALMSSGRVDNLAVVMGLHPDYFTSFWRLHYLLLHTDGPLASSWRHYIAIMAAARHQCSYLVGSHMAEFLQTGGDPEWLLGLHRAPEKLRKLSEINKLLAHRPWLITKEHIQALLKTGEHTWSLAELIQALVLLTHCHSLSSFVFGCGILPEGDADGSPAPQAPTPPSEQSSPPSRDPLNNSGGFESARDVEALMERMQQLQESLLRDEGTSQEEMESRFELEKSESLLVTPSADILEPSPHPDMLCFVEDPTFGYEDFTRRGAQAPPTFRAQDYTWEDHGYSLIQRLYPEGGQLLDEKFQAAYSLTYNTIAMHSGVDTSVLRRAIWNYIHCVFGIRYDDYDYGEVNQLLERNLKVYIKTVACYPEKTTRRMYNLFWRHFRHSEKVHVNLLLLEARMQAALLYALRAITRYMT
# Test Method Notes: Sestrin2-GATOR2 interaction in HEK-293T cells after starvation/restimulation (co-immunoprecipitation)
# Condition Summary: HEK-293T starved of leucine 50 minutes, restimulated 10 minutes; read-out: half-maximal effect on the Sestrin2-GATOR2 interaction in cells
Metric Name: EC50

1) CC(C)C[C@H](N)C(=O)O [leucine]; 20 to 40 µM

// provenance: patent US10168338B2
